Assignment: determine reported pKd for the given binders.
Molecular target: T1, human glypican-3 (GPC3) (human, UniProt P51654 25-554)
T1 construct: Endogenous on JHH-7, JHH-5, HepG2 and NCI-H446 tumour cells, or transiently expressed on CHO-S cells from a pTT5 plasmid; also called hGPC3; huGPC3
Assay: flow cytometry on JHH-7 cells (GPC3-high);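 further: antibody binding at 4 °C for 24 h, detected with anti-human AF647 secondary, geometric mean fluorescence of live cells versus antibody concentration, fitted as specific binding with Hill slope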
One number for each entry, as −log10 of the molar value.

Worked set:
- binder: "H18L6_LC_G34E mAb, v40204 (antibody, human IgG1, kappa, V domains shown, M3-H18L6 chains with the stated light chain point mutation, IgG1/kappa) VH: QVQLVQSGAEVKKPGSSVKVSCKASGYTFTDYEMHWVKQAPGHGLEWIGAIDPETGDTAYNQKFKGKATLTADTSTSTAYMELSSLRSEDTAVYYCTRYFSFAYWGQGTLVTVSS VL: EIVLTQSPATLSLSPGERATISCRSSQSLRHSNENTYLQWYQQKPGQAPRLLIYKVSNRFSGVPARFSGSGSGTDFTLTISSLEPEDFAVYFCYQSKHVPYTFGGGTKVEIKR"
  pKd: 9.38
- binder: "H18L6_LC_N33A mAb, v40219 (antibody, human IgG1, kappa, V domains shown, M3-H18L6 chains with the stated light chain point mutation, IgG1/kappa) VH: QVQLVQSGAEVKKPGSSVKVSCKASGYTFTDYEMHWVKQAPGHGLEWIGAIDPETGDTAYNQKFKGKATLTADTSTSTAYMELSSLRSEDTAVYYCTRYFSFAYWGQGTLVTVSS VL: EIVLTQSPATLSLSPGERATISCRSSQSLRHSAGNTYLQWYQQKPGQAPRLLIYKVSNRFSGVPARFSGSGSGTDFTLTISSLEPEDFAVYFCYQSKHVPYTFGGGTKVEIKR"
  pKd: 9.21
- binder: "H18L6_LC_N33H mAb, v40218 (antibody, human IgG1, kappa, V domains shown, M3-H18L6 chains with the stated light chain point mutation, IgG1/kappa) VH: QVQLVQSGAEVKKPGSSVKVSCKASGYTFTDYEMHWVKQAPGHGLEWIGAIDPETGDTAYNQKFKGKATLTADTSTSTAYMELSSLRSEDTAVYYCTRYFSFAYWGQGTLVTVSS VL: EIVLTQSPATLSLSPGERATISCRSSQSLRHSHGNTYLQWYQQKPGQAPRLLIYKVSNRFSGVPARFSGSGSGTDFTLTISSLEPEDFAVYFCYQSKHVPYTFGGGTKVEIKR"
  pKd: 9.11
- binder: "H18L6_LC_G34R mAb, v40206 (antibody, human IgG1, kappa, V domains shown, Full-size IgG1/kappa) VH: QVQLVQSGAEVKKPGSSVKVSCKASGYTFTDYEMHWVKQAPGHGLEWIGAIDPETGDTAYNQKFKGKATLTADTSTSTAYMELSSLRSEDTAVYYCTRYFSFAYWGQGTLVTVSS VL: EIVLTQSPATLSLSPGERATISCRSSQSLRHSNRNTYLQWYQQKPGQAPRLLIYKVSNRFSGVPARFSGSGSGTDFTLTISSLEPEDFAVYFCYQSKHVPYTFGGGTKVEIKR"
  pKd: 9.47
- binder: "H18L6_LC_N33S mAb, v40221 (antibody, human IgG1, kappa, V domains shown, M3-H18L6 chains with the stated light chain point mutation, IgG1/kappa) VH: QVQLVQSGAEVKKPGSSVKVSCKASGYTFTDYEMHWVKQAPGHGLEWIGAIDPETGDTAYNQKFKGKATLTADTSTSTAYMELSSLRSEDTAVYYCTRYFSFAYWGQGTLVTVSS VL: EIVLTQSPATLSLSPGERATISCRSSQSLRHSSGNTYLQWYQQKPGQAPRLLIYKVSNRFSGVPARFSGSGSGTDFTLTISSLEPEDFAVYFCYQSKHVPYTFGGGTKVEIKR"
  pKd: 9.10
- binder: "H18L6_LC_G34D mAb, v40203 (antibody, human IgG1, kappa, V domains shown) VH: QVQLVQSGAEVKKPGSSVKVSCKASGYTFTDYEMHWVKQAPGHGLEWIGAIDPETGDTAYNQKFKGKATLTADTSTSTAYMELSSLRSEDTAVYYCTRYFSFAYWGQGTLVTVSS VL: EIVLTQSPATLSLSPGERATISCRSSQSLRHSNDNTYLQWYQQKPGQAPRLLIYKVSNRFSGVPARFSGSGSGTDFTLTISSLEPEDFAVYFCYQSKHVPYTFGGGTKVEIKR"
  pKd: 9.40

Give one value of pKd per listed binder.
1. H18L6_LC_N33K mAb, v40217 (antibody, human IgG1, kappa, V domains shown, M3-H18L6 chains with the stated light chain point mutation, IgG1/kappa) VH: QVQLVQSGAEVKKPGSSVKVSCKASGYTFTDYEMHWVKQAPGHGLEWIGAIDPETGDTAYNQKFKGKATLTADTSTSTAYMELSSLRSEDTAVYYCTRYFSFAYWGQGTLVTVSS VL: EIVLTQSPATLSLSPGERATISCRSSQSLRHSKGNTYLQWYQQKPGQAPRLLIYKVSNRFSGVPARFSGSGSGTDFTLTISSLEPEDFAVYFCYQSKHVPYTFGGGTKVEIKR
2. H18L6_LC_G34V mAb, v40211 (antibody, human IgG1, kappa, V domains shown, M3-H18L6 chains with the stated light chain point mutation, IgG1/kappa) VH: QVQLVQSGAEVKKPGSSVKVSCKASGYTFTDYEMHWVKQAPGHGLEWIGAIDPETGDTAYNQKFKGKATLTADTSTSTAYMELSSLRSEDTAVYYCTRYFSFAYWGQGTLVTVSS VL: EIVLTQSPATLSLSPGERATISCRSSQSLRHSNVNTYLQWYQQKPGQAPRLLIYKVSNRFSGVPARFSGSGSGTDFTLTISSLEPEDFAVYFCYQSKHVPYTFGGGTKVEIKR
3. H18L6_LC_G34K mAb, v40207 (antibody, human IgG1, kappa, V domains shown, Full-size IgG1/kappa) VH: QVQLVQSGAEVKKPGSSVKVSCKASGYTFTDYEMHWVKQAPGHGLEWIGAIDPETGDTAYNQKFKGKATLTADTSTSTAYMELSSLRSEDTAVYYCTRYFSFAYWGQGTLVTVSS VL: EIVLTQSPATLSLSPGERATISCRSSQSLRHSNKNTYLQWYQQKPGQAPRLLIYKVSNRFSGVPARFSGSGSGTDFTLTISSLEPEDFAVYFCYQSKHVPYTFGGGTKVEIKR

OUT:
9.25
9.40
9.41
